B1: CDS2 (parent)
chain: LIVVTQSHLVIHNLFEGMIWFIVP

# Variants of: B1
# PROTOCOL DETAILS: protein stability index of a GFP-peptide fusion (GPS, HEK-293T) (PSI 1-6); higher = more stable;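 further: lentivirally expressed fusions sorted by FACS into six bins by GFP to DsRed ratio, PSI derived from sequencing read proportions per bin multiplied by bin number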
# MEASUREMENT CONTEXT: c terminus: a fixed tail appended
Would you please tag the item y when its protein stability index is 3 or above, and n when it is below?

record_sequence="LIVVTQSHLVIHNLFEGMIWCIVP [F21C]" label=y
record_sequence="LIVVTQSHLVIHNLFSGMIWFIVP [E16S]" label=y
record_sequence="LIGVTQSHLVIHNLFEGMIWFIVP [V3G]" label=y
record_sequence="LIVVTQSHLVIHDLFEGMIWFIVP [N13D]" label=n
record_sequence="LILVTQSHLVIHNLFEGMIWFIVP [V3L]" label=n
record_sequence="LIVVCQSHLVIHNLFEGMIWFIVP [T5C]" label=y
